- Tested on: PHF6
- procedure.text: 3' UTR reporter interaction score (median-centred robust z-score of log2 firefly/Renilla activity); higher = less repression of the 3' UTR reporter
- measurement.parameters: HEK293T; 48 h
Assign Condition met whenever 3' UTR reporter interaction score does not fall below 0.7; assign Condition not met whenever it does.

// query State whether the measured 3' UTR reporter interaction score reaches 0.7, counting equality as reaching it, for `UCACAAUGCUGACACUCAAACUGCUGAC`
// result Condition not met

// query Now give it for `UAUUGCACUCGUCCCGGCCUC` too.
// result Condition met

// query Field entry: `UCCCUGUCCUCCAGGAGCUCA`
// result Condition not met

// query Now consider `UCCGUCUCAGUUACUUUAUAGCC` .
// result Condition met

// query For `AGUAUUCUGUACCAGGGAAGGU` then?
// result Condition not met

// query Now the sequence `GAAAACAGCAAUUACCUUUGCA`
// result Condition not met

// query Okay, and `CAGCAGCACACUGUGGUUUGU` ?
// result Condition met

// query And then `AAAGUGCAUCUUUUUAGAGGAU` , what is it?
// result Condition not met

// query Further, for `AGAGGUAGUAGGUUGCAUAGU` ?
// result Condition met

// query What do you get for `AGUGGUUUUACCCUAUGGUAG` ?
// result Condition met

// query Then this sequence: `CAUCUGGAGGUAAGAAGCACUUU`
// result Condition met

// query Okay, and `UGGACGGAGAACUGAUAAGGGU` ?
// result Condition not met

// query Please give the result for `AAAGCGCUUCCCUUUGCUGGA` too.
// result Condition met

// query Another sequence: `AGUGACAUCACAUAUACGGCAGC`
// result Condition not met

// query And then `AUUACAUGGCCAAUCUC` , what is it?
// result Condition not met

// query Now give it for `UGAUUGUAGCCUUUUGGAGUAGA` too.
// result Condition not met

// query And what about the sequence `AAUUGCACUUUAGCAAUGGUGA` ?
// result Condition met

// query What do you have for `AUCGUGCAUCCUUUUAGAGUGU` ?
// result Condition met

// query Further, for `UGGUUUACCGUCCCACAUACAU` ?
// result Condition not met

// query Next sequence up: `AAUGACACGAUCACUCCCGUUGA`
// result Condition not met

// query Check `AACCAGCACCCCAACUUUGGAC` too.
// result Condition not met

// query Try this sequence next: `UAAGGCACCCUUCUGAGUAGA`
// result Condition not met

// query One more sequence: `UGUGCAAAUCCAUGCAAAACUGA`
// result Condition not met

// query Subsequent entry: `ACUCCAGCCCCACAGCCUCAGC`
// result Condition not met

// query Item: `UAAAGUAAAUAUGCACCAAAA`
// result Condition not met

// query Consider next the sequence `AGGCUGCGGAAUUCAGGAC` in the same way.
// result Condition met

// query Moving on to `GCCCCUGGGCCUAUCCUAGAA`
// result Condition met

// query Same read-out for `AGGGGGAAAGUUCUAUAGUCCU` ?
// result Condition met

// query Same again, this time with `UUAAUGCUAAUCGUGAUAGGGG`
// result Condition not met

// query // same read-out, input: `AAGUGCUGUCAUAGCUGAGGUC`
// result Condition met

// query Also check `UGAGGUAGGAGGUUGUAUAGU`
// result Condition not met

// query Try this sequence too: `UUGUGCUUGAUCUAACCAUGU`
// result Condition not met

// query Next: `UCAGUCUCAUCUGCAAAGAAG`
// result Condition not met

// query Please do the same for `CUUUUUGCGGUCUGGGCUUGC` as well.
// result Condition not met

* * *

- System: MYCN
- procedure.text: 3' UTR reporter interaction score (median-centred robust z-score of log2 firefly/Renilla activity); higher = less repression of the 3' UTR reporter
- measurement.parameters: HEK293T; 48 h
Binary call on 3' UTR reporter interaction score: T from -0.4 upward, F beneath that.

// query Does 3' UTR reporter interaction score meet or surpass -0.4 for `UCCAGCAUCAGUGAUUUUGUUGA` ?
// result T

// query Again, but for `UGGCUCAGUUCAGCAGGAACAG`
// result T

// query Entry to check: `AGAGGUAUAGGGCAUGGGAAAA`
// result F

// query Same thing, different sequence: `UAGAUAAAAUAUUGGUACCUG`
// result T

// query Also `CUCUAGAGGGAAGCGCUUUCUGUU` , if possible.
// result T

// query Same again, this time with `GUGUCUGCUUCCUGUGGGA`
// result T

// query Now the same for `UUAUAAUACAACCUGAUAAGUG`
// result T

// query Similarly, `AACAUUCAUUGUUGUCGGUGGGUU` ?
// result F

// query Input `GUUUGCACGGGUGGGCCUUGUCU`
// result T

// query Lookup `GUCCGCUCGGCGGUGGCCCA`
// result F

* * *

- Test system: MYB
- procedure.text: 3' UTR reporter interaction score (median-centred robust z-score of log2 firefly/Renilla activity); higher = less repression of the 3' UTR reporter
- measurement.parameters: HEK293T; 48 h
Task for the reader: assign each of the following sequences its reported 3' UTR reporter interaction score.
Respond numerically, and do not add a unit to the figure.

// query What does the data say about its 3' UTR reporter interaction score? Entry: `UGAGGUAGUAAGUUGUAUUGUU`
// result 0.37

// query Try the sequence `GCCUGCUGGGGUGGAACCUGG`
// result 0.0969

// query Also `GCAAAGCACACGGCCUGCAGAGA` ?
// result 1.11

// query And for `AUUGACACUUCUGUGAGUAG` ?
// result 0.756

// query # repeat for `AGGGCCCCCCCUCAAUCCUGU`
// result 0.144

// query Next up: `GUGCAUUGUAGUUGCAUUG`
// result 0.56

// query What do you have for `GUUCUCCCAACGUAAGCCCAGC` ?
// result -4.37

// query Now try `AGCUACAUUGUCUGCUGGGUUUC` .
// result -4.52

// query Then `GCUGGGCAGGGCUUCUGAGCUCCUU` ?
// result 0.00877

// query Follow-up item: `UUCUCCAAAAGGGAGCACUUUC`
// result -0.361

* * *

- Test system: NOTCH1
- procedure.text: 3' UTR reporter interaction score (median-centred robust z-score of log2 firefly/Renilla activity); higher = less repression of the 3' UTR reporter
- measurement.parameters: HEK293T; 48 h
observation.type: 3' UTR reporter interaction score

// query Recorded 3' UTR reporter interaction score for `GGCAGGUUCUCACCCUCUCUAGG` with NOTCH1, please?
// result 0.309

// query Okay, and `UAAAGUGCUUAUAGUGCAGGUAG` ?
// result 0.917

// query Param item: `AAACUACUGAAAAUCAAAGAU`
// result -0.667

// query Please do the same for `UGUAAACAUCCUACACUCAGCU` as well.
// result -0.804

// query Subsequent entry: `UUACAGUUGUUCAACCAGUUACU`
// result -0.374

// query Now consider `AACCCGUAGAUCCGAUCUUGUG` .
// result 0.552

// query Repeat for the following sequence: `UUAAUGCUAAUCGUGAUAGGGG`
// result 0.178

// query Next: `UGAGACCUCUGGGUUCUGAGCU`
// result 0.17

// query Thanks! And `UGUGACUGGUUGACCAGAGGG` ?
// result 0.462

// query `AGUUAAUGAAUCCUGGAAAGU` , same question.
// result -0.406

// query Moving on to `AAUCAUACAGGGACAUCCAGUU`
// result -0.77

// query Next sequence up: `UGUAAACAUCCUUGACUGGA`
// result -0.407

// query And for `UUUCAAGCCAGGGGGCGUUUUUC` ?
// result -1.91

// query Would you kindly repeat that for `UAGGUUAUCCGUGUUGCCUUCG` ?
// result 0.0096

// query Now try `CAAAGUUUAAGAUCCUUGAAGU` .
// result -0.31

// query What about `GUCAACACUUGCUGGUUUCCUC` ?
// result -0.696

// query What about this sequence? `CUGCAAAGGGAAGCCCUUUCU`
// result -1.22

// query Check `UCGUACCGUGAGUAAUAAUGC` too.
// result -1.54

// query // same read-out, input: `CCCAGUGUUUAGACUAUCUGUUC`
// result -0.226

// query Could you do the same for `AACUGGCCUACAAAGUCCCAG` , please?
// result -1.05

// query Now try `AGGCAGUGUAGUUAGCUGAUUGC` .
// result -3.48

// query Would you mind doing `AGGCACGGUGUCAGCAGGC` as well?
// result 0.0125

// query Repeat with `AGUAUGUUCUUCCAGGACAGAAC`
// result -0.607

// query Okay, and `UUUUGCACCUUUUGGAGUGAA` ?
// result 1.27

// query Another: `AUUCAUUUGGUAUAAACCGCGAU`
// result 0.53

// query Same for `CAAAGAAUUCUCCUUUUGGGCUU`
// result 1.33

// query One more sequence: `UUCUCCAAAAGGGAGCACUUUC`
// result -0.166

// query Let us now turn to `CAAAGUGCUUACAGUGCAGGUAGU`
// result 0.897

// query Next record, please: `AGCUACAUCUGGCUACUGGGUCUC`
// result 0.41

// query # repeat for `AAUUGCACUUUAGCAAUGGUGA`
// result -0.161

// query # repeat for `AGGCGGGGCGCCGCGGGACCGC`
// result 0.236

// query Now consider `UAAAUCCCAUGGUGCCUUCUCCU` and answer again.
// result 0.16

// query Quick one: `AAAGUGCUUCUCUUUGGUGGGUU`
// result 0.392

// query For `CGCAUCCCCUAGGGCAUUGGUGU` then?
// result -1.34

// query Please do the same for `UCAGUGCACUACAGAACUUUGU` as well.
// result 0.169

// query Moving on to `AUUCUGCAUUUUUAGCAAGU`
// result -2.14

// query Same thing, different sequence: `UGGUGCGGAGAGGGCCCACAGUG`
// result 0.612

// query Repeat for the following sequence: `GUGUCUGCUUCCUGUGGGA`
// result -0.363

// query Repeat with `AGACCAUGGGUUCUCAUUGU`
// result -0.0186

// query Would you kindly repeat that for `GUGAAAUGUUUAGGACCACUAG` ?
// result -0.392

// query Now the same for `UCUGCUCAUACCCCAUGGUUUCU`
// result -0.475

// query // repeat for `GCGUGCGCCGGCCGGCCGCC` and report
// result -0.272

// query Check `ACUUCACCUGGUCCACUAGCCGU` too.
// result 0.897

// query Record: `ACUGCCCUAAGUGCUCCUUCU`
// result -0.46
